# method_notes: Mycobacterium tuberculosis growth inhibition, primary screen (AID 1259343)
# reported_conditions: at 10 µM, hits give high values
In all, about 6,200 compounds went through this assay and about 2,900 (47%) were called active. The set was probably picked from earlier hits. This is one part of the list.
So basically: inhibition at 60% or higher? That is Criterion met. Lower than 60%? That is Criterion not met.

Could you tell me if the measured inhibition of Cc1ccc2nc(-c3ccc(NS(C)(=O)=O)cc3)sc2c1 reaches 60% or more?
Criterion not met

Would you say C=Cc1ccc(Cn2c(C)c(C(=O)Nc3ccc(OC)cc3)sc2=O)cc1 shows inhibition at minimum 60%?
Criterion not met

Is inhibition for N#Cc1cccc(COc2ccc(NC(=O)C3CCCO3)cc2F)c1 (stereo unspecified) at or above 60%?
Criterion met

# check: inhibition of COc1cccc(Nc2nc(C(N)Cc3ccc(Cl)cc3)cs2)n1 (stereo unspecified) is greater than or equal to 60%
Criterion met

Tell me whether inhibition is at least 60% here: CCCc1cc(=O)[nH]c(-n2nc(C)cc2NC(=O)c2ccc(C)cc2)n1
Criterion met

Kindly determine if inhibition recorded for Nc1nc2ccc(Oc3ccc4nc(N)sc4c3)cc2s1 is above or exactly 60%.
Criterion not met

Item Cc1ccc(OCCCCNC(=O)c2ccc(Br)o2)cc1 with inhibition of 60% or above?
Criterion met

Please indicate if the recorded inhibition for Cc1noc(CN(C)C(=O)c2cc(C(C)C)no2)n1 meets or exceeds 60%.
Criterion not met

Form field: inhibition at least 60%? Entry: O=C(O)c1cnc(/C=C/c2cnn(-c3ccc(Cl)cc3)c2)s1
Criterion met

---

# method_notes: Mycobacterium tuberculosis growth inhibition, primary screen (AID 1259343)
# reported_conditions: at 10 µM
Screen size: about 6,200 compounds; about 2,900 (47%) were called active. No stated cut-off is given here; in the data, active means inhibition above about 50%; inactive means the rest. So high a share suggests a set chosen from earlier hits. Some of the results follow.
Mark one answer only. Choices: YES = active, NO = inactive

Kindly provide the recorded test outcome for the following compound: c1ccc(CCNCCCOc2cccc3ccccc23)cc1
YES

Recorded test call requested for CC(C)(C)c1ccc(S(=O)(=O)/C=C/C#N)cc1
YES

Write down the call the test reported for this compound. Item: CCCCc1ccc(N2C3=[N+](CCCS3)CC2(O)c2ccc(C)cc2)cc1 (stereo unspecified)
YES

What outcome does the record of this test show for O=C(COCc1ccccc1)N(Cc1ccccc1)Cc1nc2cc(Cl)ccc2o1 ?
NO

// param item: O=[N+]([O-])c1ncc[nH]1 ; yields the recorded call
NO

Dear colleague, could you share the recorded outcome for Cc1cc(=O)[nH]c(-n2nc(C)cc2NC(=O)c2ccccc2C)n1 when you have a moment?
YES

---

# method_notes: Mycobacterium tuberculosis growth inhibition, primary screen (AID 1259343)
# reported_conditions: at 10 µM
In all, about 6,200 compounds went through this assay and about 2,900 (47%) were called active. No stated cut-off is given here; in the data, active means inhibition above about 50%; inactive means the rest. So high a share suggests a set chosen from earlier hits. This is one part of the list.
Permitted responses: yes for active, no for inactive

I would be grateful if you could indicate the recorded call for COc1ccc(OCCSc2nnnn2C2CCCCC2)cc1 .
no

Hi team, can someone confirm the assay call for Clc1cc(CSc2nnnn2C2CCCC2)cc2c1OCCO2 ?
no

Assay outcome for Cc1noc(C)c1CCC(=O)Nc1ccc2oc3ccccc3c2c1 : what was it?
no

Hi, sorry to bother you, what did the test record for COc1cc2c(cc1NC(=O)CC(C)=NNC=O)oc1ccccc12 ?
yes

Please indicate how the test categorized CC(C)c1cc2c(c(O)c1O)[C@@]1(C(=O)O)CCCC(C)(C)C1CC2 (stereo not given in full) .
no

Query: recorded result category for O=C(Nc1ccccc1OCCCc1ccccc1)C1CCOC1 (stereo not given) in this test
yes

Check the results log: what was the call for CC(C)c1ccc2c(c1)CCC1C(C)(C(N)=O)CCCC21C (stereo not given) ?
yes

Answer briefly: the call reported for COc1cc(OC)c(OC)cc1C=NNc1ccc(F)cc1F in this assay.
yes

# fetch the recorded call for CC1CN(c2ccc(-c3nnc(Br)s3)cc2)CC(C)(C)O1 (stereo not given) here
no

Recorded call for CCCOC(=O)c1cc(Br)ccc1NC(=O)c1ccc(C)nc1 ?
no

Dear all, I need the recorded test outcome for CCCOC(=O)c1ccc(NC(=O)c2cc(CCC)[nH]n2)cc1 , thank you.
yes

Hey, what did the test say about Cc1ccc(Sc2ccccc2N2CCNCC2)c(C)c1 ?
yes

Answer briefly: the call reported for CCCc1cc(=O)[nH]c(-n2nc(C)cc2NC(=O)c2ccc3ccccc3c2)n1 in this assay.
yes

Returns: the outcome recorded for FC(F)(F)c1ccnc(NCC2COc3ccccc3O2)n1 (stereo not given) in this assay.
yes

Query: recorded result category for O=c1oc2c(-c3ccc(Br)cc3)cc(O)cc2s1 in this test
no

I would be grateful if you could indicate the recorded call for COc1ccc(-c2cc(O)cc3sc(=O)oc23)cc1 .
yes

Tell me the recorded outcome of this test for COc1ccccc1/C=C/CN1CCCC(CCC(=O)Nc2cc(Cl)ccc2OC)C1 (stereo not given) .
no

Assay outcome for O=C(CC(O)(c1ccccc1)C(F)(F)F)N1CCN(Cc2ccc(Cl)cc2)CC1 (stereo not given) : what was it?
yes

Any idea what this test logged for N#Cc1ccc(CNc2ccccc2Br)cc1 ?
no

Please share the test call associated with CCOC(=O)N1CCC(NS(=O)(=O)CCCOc2ccc(F)cc2)CC1 .
no

---

I'd be grateful if you could share measured inhibition for these entries.
# method_notes: Mycobacterium tuberculosis growth inhibition, primary screen (AID 1259343)
# reported_conditions: at 10 µM, hits give high values
About 2,900 (47%) of roughly 6,200 compounds were called active. So high a share suggests a set chosen from earlier hits. The list shows a part of the results.
Give your result in % as a bare value.

Quick check: inhibition of Cc1ccc(-n2c(-c3ccc(Cl)cc3)cc(C(=O)N3CCN(c4cccc(Cl)c4)CC3)c2C)cc1 ?
33.6

Please give the measured inhibition for this compound: CN(C)CCNc1c2c(c(C#N)c3nc4ccccc4n13)CCCC2
20

Reported inhibition for O=C(CN1CCc2ccccc21)NC(=O)NCc1ccccc1 : what is it?
20.7

Reported inhibition, compound c1ccc(COc2ccc(OCCCn3cnc4ccccc43)cc2)cc1 : ____
85.3

Look up inhibition: CCCCn1nc(C)c(C(=O)NCc2ccc(Cl)s2)c1Cl
-14.6

For the compound CCNc1nc(C(=O)N2CC3CCCC3C2)cs1 (stereo unspecified) , what inhibition is on record?
27.6

Any idea what its inhibition is? The compound is O=c1cnc2ccccc2n1CCOc1ccc(Br)cc1
22.6

# query: inhibition of entry CCCCn1nc(C)c(C(=O)Nc2cc(C)ccc2F)c1Cl
60.1

Endpoint output: inhibition of CCCCCOc1ccc(C(=O)N2CCC(O)(c3ccccc3)CC2)cc1OCCCCC . Value?
35.2

Recorded inhibition for CC(C)CCc1nc(Cn2c(C(F)(F)F)ccc(C(N)=O)c2=O)cs1 , please?
11.8

Need inhibition, item Cc1cc(C)n2nc(SCC(=O)Nc3ccc(C(C)C)cc3)nc2n1
84.4

---

# method_notes: Mycobacterium tuberculosis growth inhibition, primary screen (AID 1259343)
# reported_conditions: at 10 µM
In all, about 6,200 compounds went through this assay and about 2,900 (47%) were called active. Rule as the data show it: active = inhibition above about 50%; inactive = the rest. So high a share suggests a set chosen from earlier hits. This is one part of the list.
Write down one outcome, taken from YES for active, NO for inactive

Per the assay record, what outcome was assigned to CCCc1nc(N2CCNCC2)c2c(C)nn(-c3ccc(F)cc3)c2n1 ?
NO

Which result was noted for this molecule in the test: N#CC(C#N)=C1C=C2C=C(N3CCCCC3)CCC2CC1 (stereo not drawn)
NO

What is the recorded call for this molecule in the test? Fc1ccccc1CC1CCN(Cc2nc(-c3cccs3)no2)CC1
YES

Tell me the assay call for COc1ccc(NC(=O)N2CCCC(C(=O)c3sccc3C)C2)cc1OC (stereo not drawn) please.
NO

Given CCOc1ccc(NC(=O)c2cn(-c3cc(N4CCOCC4)ncn3)cn2)cc1 , state the outcome it received in this test.
YES

Could you please tell me the result logged for CC(c1nc(-c2cccs2)no1)N1CCC(c2ccccc2)CC1 (stereo not drawn) in this assay?
NO

In this assay, the call recorded for Clc1ccc(-c2nnc(CSc3nncs3)o2)cc1 was what?
YES

So what was the verdict on c1csc(-c2noc(CN3CCc4sccc4C3)n2)c1 in this test?
NO

For Cc1ccc(CNC(=O)c2c[nH]c3c(c(C)nn3-c3ccccc3)c2=O)cc1 , which call appears in the assay record?
NO

Please share the test call associated with Fc1ccc(-c2csc(SCc3nnc(-c4ccc(F)cc4)o3)n2)cc1 .
YES

Any idea what this test logged for CC1CCc2ccc(F)cc2N1S(=O)(=O)c1ccc(Cl)s1 (stereo not drawn) ?
NO

Per the records of this test, what outcome belongs to Fc1ccccc1OCC1CCCN(Cc2nc(-c3cccs3)no2)C1 (stereo not drawn) ?
NO

Identify the outcome logged in this assay for the molecule shown: NC(=O)C1CCN(C(=O)CCc2ccsc2)CC1
YES

Hello, the source for this data is PubChem BioAssay AID1259343, in case you need it.
